Would you mind telling me the reported Plasma t½ (number of time points) of each entry?
- assay.comment: Pharmacokinetics in mice after oral administration, plasma and brain by LC/MS/MS
- settings: mouse plasma, 30 mg/kg CuXTSM API oral; bracket = number of time points

Entry CNC1=NN=C(C)C(C)=NN=C(NC)[S][Cu][S]1 [CuATSM, reference compound] ; Plasma t½ (number of time points) = 196 (4) min

Entry CNC1=NN=C(C)C(C)=NN=C(NC)[S][Cu][S]1.O=C1NS(=O)(=O)c2ccccc21.O=C1NS(=O)(=O)c2ccccc21 [CuATSM:saccharin (1:2)] ; Plasma t½ (number of time points) = 170 (2) min

Entry CNC1=NN=C(C)C(C)=NN=C(NC)[S][Cu][S]1.O=C(O)CC(O)(CC(=O)O)C(=O)O [CuATSM:citric acid (1:1)] ; Plasma t½ (number of time points) = 204 (3) min

Entry CNC1=NN=CC(C)=NN=C(NC)[S][Cu][S]1.O=C1NS(=O)(=O)c2ccccc21.O=C1NS(=O)(=O)c2ccccc21 [CuPTSM:saccharin (1:2)] ; Plasma t½ (number of time points) = 439 (2) min

Entry CNC1=NN=C(C)C(C)=NN=C(NC)[S][Cu][S]1.O=C(O)C(O)C(O)C(O)C(O)CO.O=C(O)C(O)C(O)C(O)C(O)CO [CuATSM:gluconic acid (1:2)] ; Plasma t½ (number of time points) = 252 (3) min

----------
- assay.comment: Pharmacokinetics in mice after oral administration, plasma and brain by LC/MS/MS
- settings: mouse plasma, 30 mg/kg CuXTSM API oral
Would you mind telling me the reported Plasma MRT of each entry?
Just the number in h, nothing appended.

Entry `CNC1=NN=C(C)C(C)=NN=C(NC)[S][Cu][S]1.O=C1NS(=O)(=O)c2ccccc21.O=C1NS(=O)(=O)c2ccccc21` ; Plasma MRT = 6.25

Entry `CNC1=NN=C(C)C(C)=NN=C(NC)[S][Cu][S]1.O=C(O)C(O)C(O)C(O)C(O)CO.O=C(O)C(O)C(O)C(O)C(O)CO` ; Plasma MRT = 5.95

Entry `CNC1=NN=CC(C)=NN=C(NC)[S][Cu][S]1.O=C1NS(=O)(=O)c2ccccc21.O=C1NS(=O)(=O)c2ccccc21` ; Plasma MRT = 7.9

Entry CNC1=NN=C(C)C(C)=NN=C(NC)[S][Cu][S]1 [CuATSM, reference compound] ; Plasma MRT = 5.25

Entry `CNC1=NN=C(C)C(C)=NN=C(NC)[S][Cu][S]1.O=C(O)CC(O)(CC(=O)O)C(=O)O` ; Plasma MRT = 5.25

----------
- assay.comment: Pharmacokinetics in mice after oral administration, plasma and brain by LC/MS/MS
- settings: mouse plasma, 30 mg/kg CuXTSM API oral; CuATSM in SSV, NCDs in water
measurement.kind: Plasma Tmax (h)
Just the number in h, nothing appended.

Entry `CNC1=NN=C(C)C(C)=NN=C(NC)[S][Cu][S]1.O=C1NS(=O)(=O)c2ccccc21.O=C1NS(=O)(=O)c2ccccc21` ; Plasma Tmax = 2

Entry `CNC1=NN=CC(C)=NN=C(NC)[S][Cu][S]1.O=C1NS(=O)(=O)c2ccccc21.O=C1NS(=O)(=O)c2ccccc21` ; Plasma Tmax = 1

Entry `CNC1=NN=C(C)C(C)=NN=C(NC)[S][Cu][S]1.O=C(O)CC(O)(CC(=O)O)C(=O)O` ; Plasma Tmax = 1

Entry `CNC1=NN=C(C)C(C)=NN=C(NC)[S][Cu][S]1.O=C(O)C(O)C(O)C(O)C(O)CO.O=C(O)C(O)C(O)C(O)C(O)CO` ; Plasma Tmax = 4

Entry CNC1=NN=C(C)C(C)=NN=C(NC)[S][Cu][S]1 [CuATSM, reference compound] ; Plasma Tmax = 2

Values from patent US11266686B2
